These data points were gathered from patent US9840501B2.

target: rat TAAR1 (Rattus norvegicus (Rat)); test: Radioligand binding assay on rat TAAR1; conditions: rat TAAR1, membranes of stably transfected HEK-293 cells; second value of the pair; read-out: Ki (μM) mouse/rat: rat
Experimental Endpoint: Ki (µM)

Molecule | Unit Abbrev | Ki
Fc1ccc(Nc2ccc(C3CNCCO3)nc2)cc1 (racemic) | µM | 0.372

a. O=C(Nc1ccc([C@H]2CNCCO2)nc1)c1ccc(OCC(F)(F)F)nc1
b. O=C(Nc1ccc(C2CNCCO2)nc1)c1ccc(F)cc1 (racemic)
c. CC(C)Cc1cc(C(=O)Nc2ccc([C@H]3CNCCO3)nc2)[nH]n1
d. O=C(Nc1cccc(Cl)c1)Nc1cnc(C2CNCCO2)c(Cl)c1 (racemic)
e. O=C(Nc1ccc([C@@H]2CNCCO2)nc1)c1cccc(C(F)(F)F)c1
Task: Task for the reader: rank each entry by its Ki, from the minimum upward. Answer by writing out the labels in the requested order.
Output: e, d, a, c, b

###

target: rat TAAR1 (Rattus norvegicus (Rat), UniProt Q923Y9); experiment: Radioligand binding assay on rat TAAR1; settings: rat TAAR1, membranes of stably transfected HEK-293 cells; second value of the pair; read-out: Ki (μM) mouse/rat: rat
Sequence (Q923Y9 whole entry): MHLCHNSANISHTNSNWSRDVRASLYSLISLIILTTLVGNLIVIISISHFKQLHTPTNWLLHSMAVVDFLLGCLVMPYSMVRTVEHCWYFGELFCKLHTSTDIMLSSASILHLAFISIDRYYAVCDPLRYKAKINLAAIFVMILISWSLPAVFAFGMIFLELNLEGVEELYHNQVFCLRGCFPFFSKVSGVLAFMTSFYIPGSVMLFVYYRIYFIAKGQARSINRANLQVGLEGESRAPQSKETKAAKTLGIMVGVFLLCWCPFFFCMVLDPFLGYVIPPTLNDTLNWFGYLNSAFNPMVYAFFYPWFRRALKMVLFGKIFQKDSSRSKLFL
Experimental Endpoint: Ki (µM)

Some molecules with known Ki results, for comparison:
Molecule | Assay System | Unit Abbrev | Ki
O=C(Nc1ccc([C@@H]2CNCCO2)nc1)c1[nH]nc(OCC(F)(F)F)c1Cl [Example 105] | rat TAAR1 (Rattus norvegicus (Rat), UniProt Q923Y9) | µM | 0.0176
O=C(Nc1ccc([C@H]2CNCCO2)nc1)c1cccc(C(F)(F)F)c1 [Example 55] | rat TAAR1 (Rattus norvegicus (Rat), UniProt Q923Y9) | µM | 0.0221
O=C(Nc1cnc(C2CNCCO2)nc1)c1ccc(Cl)cc1 (racemic) [Example 72] | rat TAAR1 (Rattus norvegicus (Rat), UniProt Q923Y9) | µM | 4.93
O=C(Nc1ccc([C@@H]2CNCCO2)nc1)c1[nH]nc(C2CC2)c1Br [Example 81] | rat TAAR1 (Rattus norvegicus (Rat), UniProt Q923Y9) | µM | 0.0152

a. Cc1cn[nH]c1C(=O)Nc1ccc([C@H]2CNCCO2)nc1 [Example 65]
b. O=C(Nc1ccc([C@H]2CNCCO2)nc1)c1[nH]nc(C(F)(F)F)c1Cl [Example 63]
Task: Hi, I'm comparing a with b and wondering which one has the bigger number for Ki. Any idea? // return label of chosen record
Output: a
(a: 4.47 µM, b: 0.0613 µM)

###

target: mouse TAAR1 (Mus musculus (Mouse), UniProt Q923Y8); assay: Radioligand binding assay on mouse TAAR1; settings: mouse TAAR1, membranes of stably transfected HEK-293 cells; first value of the pair; read-out: Ki (μM) mouse/rat: mouse
Sequence (Q923Y8 whole entry): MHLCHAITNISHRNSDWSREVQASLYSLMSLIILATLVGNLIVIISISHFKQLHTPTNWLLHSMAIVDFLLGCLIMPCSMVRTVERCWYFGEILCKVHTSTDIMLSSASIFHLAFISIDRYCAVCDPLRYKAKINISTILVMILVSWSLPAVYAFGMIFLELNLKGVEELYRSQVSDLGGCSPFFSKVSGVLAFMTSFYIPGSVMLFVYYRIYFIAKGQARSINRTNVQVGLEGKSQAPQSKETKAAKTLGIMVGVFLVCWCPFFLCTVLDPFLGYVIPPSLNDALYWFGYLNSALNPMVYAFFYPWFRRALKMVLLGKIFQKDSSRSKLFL
Experimental Endpoint: Ki (µM)

Previously resolved entries follow.
Compound | Experimental Endpoint | Unit Abbrev | Recorded Result
CC(C)c1n[nH]c(C(=O)Nc2ccc([C@H]3CNCCO3)nc2)c1Cl | Ki | µM | 0.0087
CC(C)c1n[nH]c(C(=O)Nc2ccc([C@@H]3CNCCO3)nc2)c1Cl | Ki | µM | 0.0311

I. O=C(Nc1ccc([C@@H]2CNCCO2)nc1)c1ccc(OCC(F)(F)F)nc1
II. Clc1ccc(Nc2ccc(C3CNCCO3)nc2)cc1 (racemic)
III. O=C(Nc1ccc([C@@H]2CNCCO2)nc1)c1[nH]nc(C(F)(F)F)c1Cl
IV. CCc1n[nH]c(C(=O)Nc2ccc([C@@H]3CNCCO3)nc2)c1F
V. CCCc1c(Cl)c(C(=O)Nc2ccc([C@H]3CNCCO3)nc2)nn1C
Task: Sort (5 compounds) by Ki: min first. Answer format: list of labels, ordered as asked.
Output: II, I, IV, V, III

###

target: rat TAAR1 (Rattus norvegicus (Rat)); assay: Radioligand binding assay on rat TAAR1; settings: rat TAAR1, membranes of stably transfected HEK-293 cells; second value of the pair; read-out: Ki (μM) mouse/rat: rat
Experimental Endpoint: Ki (µM)

Compound | Recorded Result
FC(F)(F)c1ccc(Nc2ccc([C@@H]3CNCCO3)nc2)nc1 | 0.0103
O=C(Nc1ccc([C@@H]2CNCCO2)nc1)c1ccc(Cl)cc1 | 0.102
Cc1cc(C(=O)Nc2ccc([C@@H]3CNCCO3)nc2)nc(C(F)(F)F)n1 | 0.0512
CC(C)c1cc(C(=O)Nc2ccc([C@@H]3CNCCO3)nc2)n(CC(F)(F)F)n1 | 0.0597
O=C(Nc1ccc([C@@H]2CNCCO2)nc1)c1[nH]nc(C2CC2)c1Cl | 0.0428

P. O=C(Nc1ccc(F)cc1)Nc1ccc(C2CNCCO2)nc1 (racemic)
Q. O=C(Nc1ccc([C@H]2CNCCO2)nc1)c1ccc(Cl)cc1
R. O=C(Nc1cnc(C2CNCCO2)c(Cl)c1)c1ccnc(C(F)(F)F)c1 (racemic)
Task: List these items ordered by Ki, big to small. Present the labels in the sequence the task asks for.
Output: R, Q, P
(R: 0.371 µM, Q: 0.212 µM, P: 0.0106 µM)

1. CC(C)n1nc(OCC(F)(F)F)cc1C(=O)Nc1ccc([C@@H]2CNCCO2)nc1
2. O=C(Nc1ccc([C@H]2CNCCO2)nc1)c1ccnc(C(F)(F)F)c1
3. Cc1cn[nH]c1C(=O)Nc1ccc([C@@H]2CNCCO2)nc1
Task: Which order do these items take when sorted by rising Ki? List them. Answer by naming the labels in the order asked.
Output: 1, 2, 3
(1: 0.0023 µM, 2: 0.283 µM, 3: 1.13 µM)

###

Biological target: rat TAAR1 (Rattus norvegicus (Rat), UniProt Q923Y9)
Experiment: Radioligand binding assay on rat TAAR1
Settings: rat TAAR1, membranes of stably transfected HEK-293 cells; second value of the pair; read-out: Ki (μM) mouse/rat: rat
Experimental: For the construction of expression plasmids the coding sequences of human, rat and mouse TAAR 1 were amplified from genomic DNA essentially as described by Lindemann et al.. […] Cells were released from culture flasks using trypsin/EDTA, harvested, washed twice with ice-cold PBS (without Ca^2+ and Mg^2+), pelleted at 1′000 rpm for 5 min at 4° C., frozen and stored at −80° C. […] With each new membrane batch the dissociation constant (Kd) was determined via a saturation curve. […]
Experimental Endpoint: Ki (µM)

Consider the worked cases shown below.
Compound | Unit Abbrev | Ki
O=C(Nc1ccc(C(F)(F)F)cc1)Nc1ccc(C2CNCCO2)nc1 (racemic) | µM | 0.0029
Clc1ccc(Nc2cnc(C3CNCCO3)nc2)cc1 (racemic) | µM | 1.45
O=C(Nc1ccc([C@H]2CNCCO2)nc1)c1[nH]nc(OCC(F)(F)F)c1Cl | µM | 0.0225
FC(F)(F)c1ccc(Nc2ccc([C@H]3CNCCO3)nc2)cn1 | µM | 1.1

A. CC(C)c1n[nH]c(C(=O)Nc2ccc([C@H]3CNCCO3)nc2)c1F
B. CCOc1n[nH]c(C(=O)Nc2ccc(C3CNCCO3)nc2)c1Cl (racemic)
Task: Min Ki? A | B State the label of the item chosen.
Output: B
(B: 0.066 µM, A: 0.12 µM)

###

target: rat TAAR1 (Rattus norvegicus (Rat), UniProt Q923Y9); assay: Radioligand binding assay on rat TAAR1; details: rat TAAR1, membranes of stably transfected HEK-293 cells; second value of the pair; read-out: Ki (μM) mouse/rat: rat
Experimental Endpoint: Ki (µM)

Reference set, count: 9
Compound | Assay System | Unit Abbrev | Ki
CC(C)Cc1n[nH]c(C(=O)Nc2ccc([C@@H]3CNCCO3)nc2)c1F [Example 89] | rat TAAR1 (Rattus norvegicus (Rat), UniProt Q923Y9) | µM | 0.0297
FC(F)(F)c1ccc(Nc2ccc([C@H]3CNCCO3)nc2)nc1 [Example 49] | rat TAAR1 (Rattus norvegicus (Rat), UniProt Q923Y9) | µM | 0.066
CCc1n[nH]c(C(=O)Nc2ccc([C@@H]3CNCCO3)nc2)c1Br [Example 78] | rat TAAR1 (Rattus norvegicus (Rat), UniProt Q923Y9) | µM | 0.041
CCCCc1cc(C(=O)Nc2ccc([C@@H]3CNCCO3)nc2)[nH]n1 [Example 91] | rat TAAR1 (Rattus norvegicus (Rat), UniProt Q923Y9) | µM | 0.0061
CC(C)c1n[nH]c(C(=O)Nc2ccc([C@@H]3CNCCO3)nc2)c1Cl [Example 120] | rat TAAR1 (Rattus norvegicus (Rat), UniProt Q923Y9) | µM | 0.0203
Clc1ccc(Nc2ccc([C@H]3CNCCO3)nc2)nc1 [Example 26] | rat TAAR1 (Rattus norvegicus (Rat), UniProt Q923Y9) | µM | 0.424
O=C(Nc1cnc(C2CNCCO2)c(F)c1)c1ccnc(C(F)(F)F)c1 (racemic) [Example 113] | rat TAAR1 (Rattus norvegicus (Rat), UniProt Q923Y9) | µM | 1.31
O=C(Nc1ccc([C@@H]2CNCCO2)nc1)c1ccnc(C(F)(F)F)c1 [Example 34] | rat TAAR1 (Rattus norvegicus (Rat), UniProt Q923Y9) | µM | 0.147
Brc1ccc(Nc2ccc([C@@H]3CNCCO3)nc2)nc1 [Example 21] | rat TAAR1 (Rattus norvegicus (Rat), UniProt Q923Y9) | µM | 0.0324

P. Fc1cc(Nc2ccc(C(F)(F)F)cn2)cnc1C1CNCCO1 (racemic) [Example 111]
Q. Brc1ccc(Nc2ccc(C3CNCCO3)nc2)cc1 (racemic) [Example 2]
R. CCc1n[nH]c(C(=O)Nc2ccc([C@@H]3CNCCO3)nc2)c1F [Example 77]
S. Cc1n[nH]c(C(=O)Nc2ccc([C@H]3CNCCO3)nc2)c1Cl [Example 64]
Task: Please produce an ascending ranking of these compounds based on Ki. Use the labels to give the ranking in the order requested.
Output: Q, P, R, S
